Overview of reported EC50 across a group of compounds:
molecular target: STING (Homo sapiens, UniProt Q86WV6, G230A/H232R/R293Q/R71H); assay: STING reporter assay: luciferase reporter activity in THP1-Dual KO-IFNAR2 cells stimulated with 2'3'cGAMP; settings: 2′3′cGAMP 15 μM final, 24h, read-out: hSTING: EC50
Sequence (Q86WV6 whole entry R71H/G230A/H232R/R293Q): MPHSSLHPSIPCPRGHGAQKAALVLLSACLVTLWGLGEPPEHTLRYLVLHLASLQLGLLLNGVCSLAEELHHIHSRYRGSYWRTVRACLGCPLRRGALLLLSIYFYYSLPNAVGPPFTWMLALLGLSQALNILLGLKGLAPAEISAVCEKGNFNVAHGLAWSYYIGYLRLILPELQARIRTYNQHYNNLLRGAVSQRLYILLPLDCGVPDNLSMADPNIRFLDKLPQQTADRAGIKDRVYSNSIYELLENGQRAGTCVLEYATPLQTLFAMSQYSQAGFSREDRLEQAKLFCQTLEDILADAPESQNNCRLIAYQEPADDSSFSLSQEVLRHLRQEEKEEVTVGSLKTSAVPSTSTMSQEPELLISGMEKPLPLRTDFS

Worked set:
| compound | tested-target | EC50 |
| --- | --- | --- |
| CC(C)n1cc(-c2ccc3[nH]cc(NC(=O)C(=O)NCc4ccc(C(F)(F)F)c(Cl)c4)c3c2)cn1 | STING (Homo sapiens, UniProt Q86WV6, G230A/H232R/R293Q/R71H) | 0.2 to 1 µM |
| CC(COc1ccc(C(F)(F)F)cc1)NC(=O)C(=O)Nc1c[nH]c2cc(F)c(F)cc12 (centres unmarked) | STING (Homo sapiens, UniProt Q86WV6, G230A/H232R/R293Q/R71H) | 0.2 to 1 µM |
| O=C(NCC1CC2C=CC1C2)C(=O)Nc1c[nH]c2cc(F)c(F)cc12 (centres unmarked) | STING (Homo sapiens, UniProt Q86WV6, G230A/H232R/R293Q/R71H) | 0.2 to 1 µM |

Quick check: EC50 of O=C(Nc1c[nH]c2cc(F)c(F)cc12)C(=O)NC1CCC(Oc2ccc(C(F)(F)F)cn2)CC1 (centres unmarked) ?
5 to 100 µM

Repeat with O=C(Nc1c[nH]c2cc(F)c(F)cc12)C(=O)NC1CC2CCC(C1)C2Oc1ccc(C(F)(F)F)cc1 (centres unmarked)
1 to 5 µM

Repeat with O=C(NCC(=O)c1cccc(C(F)(F)F)c1)C(=O)Nc1c[nH]c2cc(F)c(F)cc12
0.2 to 1 µM

Repeat with Cc1cc(NC(=O)C(=O)Nc2c[nH]c3cc(F)c(F)cc23)ccc1OC(F)(F)F
0.04 to 0.2 µM

Repeat with O=C(NC[C@@H](C(F)F)C1CCCCC1)C(=O)Nc1c[nH]c2cc(F)c(F)cc12
0.2 to 1 µM

====

target: STING (Homo sapiens, UniProt Q86WV6, G230A/H232R/R293Q/R71H); assay: STING reporter assay: luciferase reporter activity in THP1-Dual KO-IFNAR2 cells stimulated with 2'3'cGAMP; details: 2′3′cGAMP 15 μM final, 24h, read-out: hSTING: EC50
pEC50: −log10 of the molar value.
Overview of reported pEC50 across a group of molecules:

| molecule | pEC50 |
| --- | --- |
| O=C(NCCc1ccccc1C(F)(F)F)C(=O)Nc1c[nH]c2cc(F)c(F)cc12 | 6.00 to 6.70 |
| O=C(NCc1cccc2c1OC(F)(F)O2)C(=O)Nc1c[nH]c2cc(F)c(F)cc12 | 6.70 to 7.40 |
| O=C(Nc1c[nH]c2cc(F)c(F)cc12)C(=O)N1CCC(Cc2ccc(C(F)(F)F)cc2)CC1 | 5.30 to 6.00 |
| Cc1c(NC(=O)C(=O)Nc2c[nH]c3cc(F)c(F)cc23)cccc1C(F)(F)F | 6.00 to 6.70 |
| O=C(Nc1ccc2c(c1)CCCC2=O)C(=O)Nc1c[nH]c2cc(F)c(F)cc12 | 6.00 to 6.70 |
| CC(C)(NC(=O)C(=O)Nc1c[nH]c2cc(F)c(F)cc12)c1ccc(C(F)(F)F)c(Cl)c1 | 6.00 to 6.70 |
| O=C(NCCc1ccc(C(F)(F)F)c(Cl)c1)C(=O)Nc1c[nH]c2cc(F)c(F)cc12 | 6.00 to 6.70 |
| O=C(NCc1ccnc(N2CCCCC2)c1)C(=O)Nc1c[nH]c2cc(F)c(F)cc12 | 6.00 to 6.70 |
| COc1ccc(CCNC(=O)C(=O)Nc2c[nH]c3cc(F)c(F)cc23)cn1 | 5.30 to 6.00 |
| O=C(NCC(F)(F)c1ccccc1)C(=O)Nc1c[nH]c2cc(F)c(F)cc12 | 6.00 to 6.70 |

Quick check: pEC50 of CN(Cc1ccc(C(F)(F)F)c(Cl)c1)C(=O)C(=O)Nc1c[nH]c2cc(F)c(F)cc12 ?
4.00 to 5.30
